measured on: Wee1 kinase (h) (Homo sapiens, UniProt P30291)
Sequence (P30291 whole entry): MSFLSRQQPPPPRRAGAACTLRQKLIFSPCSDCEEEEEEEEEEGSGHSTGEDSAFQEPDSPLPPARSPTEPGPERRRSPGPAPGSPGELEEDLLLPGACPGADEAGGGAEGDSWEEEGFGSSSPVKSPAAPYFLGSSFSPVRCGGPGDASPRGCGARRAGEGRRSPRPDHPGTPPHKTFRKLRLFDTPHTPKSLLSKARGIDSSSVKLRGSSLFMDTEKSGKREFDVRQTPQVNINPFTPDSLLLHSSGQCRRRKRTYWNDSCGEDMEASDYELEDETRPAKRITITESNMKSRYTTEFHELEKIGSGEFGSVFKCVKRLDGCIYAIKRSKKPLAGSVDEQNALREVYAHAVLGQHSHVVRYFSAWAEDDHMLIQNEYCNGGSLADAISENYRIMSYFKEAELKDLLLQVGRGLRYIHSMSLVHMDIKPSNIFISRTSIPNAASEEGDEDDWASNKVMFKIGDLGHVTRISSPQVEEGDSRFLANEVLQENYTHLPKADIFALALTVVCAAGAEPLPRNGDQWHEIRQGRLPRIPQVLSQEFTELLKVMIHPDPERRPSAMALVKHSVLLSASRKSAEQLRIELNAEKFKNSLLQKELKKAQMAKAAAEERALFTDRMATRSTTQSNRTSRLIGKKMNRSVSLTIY
experiment notes: Wee1 kinase (h) detection method, [γ-33P]-ATP filter assay
Type: biochemical
assay setup: C 0.01 μm; 10 μM ATP; 40 minutes at room temperature
measured quantity: Inh. (%) of Wee1 kinase

INSERT INTO assay_data (compound_structure_string, measured_quantity, numeric_result) VALUES
  ('Cc1cc(Nc2ncc3c(=O)n(-c4c(F)cccc4Cl)n4ccnc4c3n2)cc(F)c1N1CCN(C)CC1', 'Inh. (%) of Wee1 kinase', 21);

[P] Cc1cc(Nc2ncc3c(=O)n(-c4c(F)cccc4Br)n4ccnc4c3n2)ccc1N1CCC(N(C)C)CC1
[Q] CN(C)C1CCN(c2ccc(Nc3ncc4c(=O)n(-c5c(Cl)cccc5Br)n5ccnc5c4n3)cc2Cl)CC1
When their Inh. (%) of Wee1 kinase values are compared, which is larger, P or Q ? I would appreciate it if you answered with the label of your choice.
Q

----------
measured on: Wee1 kinase (h) (Homo sapiens, UniProt P30291)
experiment notes: Wee1 kinase (h) detection method, [γ-33P]-ATP filter assay
Assay type: biochemical
assay setup: C 1 μm; 10 μM ATP; 40 minutes at room temperature
measured quantity: Inh. (%) of Wee1 kinase

INSERT INTO assay_data (molecule, numeric_result) VALUES
  ('Cc1cc(Nc2ncc3c(=O)n(-c4c(F)cccc4F)n4ccnc4c3n2)ccc1N1CCN(C)CC1 [Example 2]', 93),
  ('Cc1cc(Nc2ncc3c(=O)n(-c4c(C)cccc4Cl)n4ccnc4c3n2)cc(C)c1N1CCN(C)CC1 [Example 17]', 96),
  ('Cc1cc(Nc2ncc3c(=O)n(-c4c(F)cccc4Cl)n4ccnc4c3n2)cc(F)c1N1CCC(N(C)C)CC1 [Example 25]', 96),
  ('CN1Cc2cc(Nc3ncc4c(=O)n(-c5c(F)cccc5Cl)n5ccnc5c4n3)ccc2C(C)(C)C1 [Example 12]', 96),
  ('Cc1cc(Nc2ncc3c(=O)n(-c4c(F)cccc4Cl)n4ccnc4c3n2)cc(C)c1N1CCN(C)CC1 [Example 11]', 93),
  ('CN1CCN(c2ccc(Nc3ncc4c(=O)n(-c5c(Cl)cccc5Cl)n5ccnc5c4n3)cc2)CC1 [Example 1]', 94),
  ('CN1CCN(c2ccc(Nc3ncc4c(=O)n(-c5c(F)cccc5Cl)n5ccnc5c4n3)cc2Cl)CC1 [Example 21]', 95),
  ('Cc1cc(Nc2ncc3c(=O)n(-c4c(C)cccc4F)n4ccnc4c3n2)cc(Cl)c1N1CCN(C)CC1 [Example 52]', 78),
  ('CN1CCN(c2ccc(Nc3ncc4c(=O)n(-c5c(Cl)cccc5Cl)n5ccnc5c4n3)cc2Cl)CC1 [Example 27]', 97),
  ('Cc1cc(Nc2ncc3c(=O)n(-c4c(F)cccc4F)n4ccnc4c3n2)cc(C)c1N1CCN(C)CC1 [Example 13]', 85),
  ('Cc1cc(Nc2ncc3c(=O)n(-c4c(Cl)cccc4Cl)n4ccnc4c3n2)cc(F)c1N1CCC(N(C)C)CC1 [Example 37]', 96),
  ('Cc1cc(Nc2ncc3c(=O)n(-c4c(Cl)cccc4Cl)n4ccnc4c3n2)cc(F)c1N1CCN(C)CC1 [Example 28]', 95),
  ('CN1CCN(c2ccc(Nc3ncc4c(=O)n(-c5c(F)cccc5F)n5ccnc5c4n3)cc2Cl)CC1 [Example 18]', 87),
  ('Cc1cc(Nc2ncc3c(=O)n(-c4c(Cl)cccc4Cl)n4ccnc4c3n2)ccc1N1CCN(C)CC1 [Example 3]', 96),
  ('CN1CCN(c2ccc(Nc3ncc4c(=O)n(-c5c(Cl)cccc5Br)n5ccnc5c4n3)cc2Cl)CC1 [Example 47]', 96),
  ('CN(C)C1CCN(c2ccc(Nc3ncc4c(=O)n(-c5c(Cl)cccc5Cl)n5ccnc5c4n3)cc2Cl)CC1 [Example 35]', 96),
  ('Cc1cc(Nc2ncc3c(=O)n(-c4c(F)cccc4F)n4ccnc4c3n2)cc(Cl)c1N1CCN(C)CC1 [Example 20]', 77),
  ('Cc1cc(Nc2ncc3c(=O)n(-c4c(Cl)cccc4Cl)n4ccnc4c3n2)ccc1N1CCC(N(C)C)CC1 [Example 36]', 98),
  ('Cc1cc(Nc2ncc3c(=O)n(-c4c(F)cccc4Cl)n4ccnc4c3n2)cc(F)c1N1CCN(C)CC1 [Example 22]', 95),
  ('CN1CCN(c2ccc(Nc3ncc4c(=O)n(-c5c(F)cccc5Cl)n5ccnc5c4n3)cc2)CC1 [Example 7]', 92);
